# System: FXR:RXRa (NR concentration 270 nM, RXRa partner concentration 90 nM)
# Assay procedure: PBM binding z-score (relative to random genomic background probes); higher = stronger binding; sequences stand for … in GC…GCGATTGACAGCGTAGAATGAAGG
Quantity measured: PBM binding z-score
Answer with the value's number alone.

Record excerpt, results attached:
> print(dat)
                   construct.sequence                             system.tested  measured
1  TAGCCTAGGTCATTGGGCCAGTATAGTACGCATC  FXR:RXRa (NR concentration 270 nM, RXRa partner concentration 90 nM)      4.22
2  CTTTGTAGGTTAAGGGGGTCATTCAGTTTGAAAG  FXR:RXRa (NR concentration 270 nM, RXRa partner concentration 90 nM)      5.24
3  CTATGTAGGTTAAGGGGGCCATTCAGTTTGAAAG  FXR:RXRa (NR concentration 270 nM, RXRa partner concentration 90 nM)      1.41
4  CGTCCAAGGTCAATGCTAGGCCAGTGAAAGCATT  FXR:RXRa (NR concentration 270 nM, RXRa partner concentration 90 nM)      6.44
5  CCGAGTAGGTTACGAGGGGACATTCAGTGCGAAT  FXR:RXRa (NR concentration 270 nM, RXRa partner concentration 90 nM)      1.08

Shift focus to the following entry.
Could you share which PBM binding z-score value was measured for TGGCCTAGGTCATGGGCCAGTATACCACGCGAAC ? 4.4

----------
# Tested on: PPARg DBDmut IVT, anti-PPARg (DBD mutation: PPARg1 K132A/R137A, NR concentration 270 nM)
# Assay procedure: PBM binding z-score (relative to random genomic background probes); higher = stronger binding; sequences stand for … in GC…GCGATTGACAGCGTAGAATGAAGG
Quantity measured: PBM binding z-score

Record excerpt, results attached:
> print(dat)
                   construct.sequence    quantity.measured  measured
1  CGTCCGAGGTCAATGCTAGGTCAGTGAAAGCATT  PBM binding z-score   -0.0468
2  ACTCGGGGGACAAAGGTCAGAGCTACGCCAGTGA  PBM binding z-score      7.53
3  ATACCAAGGTGATCGTGAGTTCGTTGATACTAAC  PBM binding z-score     0.822
4  CCTTACGGGTAACTCCAGGTTATAGCATCGGAGT  PBM binding z-score    -0.665
5  TCTACTTGGTCACGGAGGTCACACACGACGGGTA  PBM binding z-score      1.65
6  ATCGAATGGTCGTGAGGTGAGTATACAGAAAGGC  PBM binding z-score  -0.00822
7  CGTCCAAGGTCAAAGGTCAGTAAAGAGATGACGG  PBM binding z-score     0.691
8  CCTACTGGGCCACTCAGAGGTCATTGATCATATG  PBM binding z-score    -0.561

Record lookup: for PPARg DBDmut IVT, anti-PPARg (DBD mutation: PPARg1 K132A/R137A, NR concentration 270 nM), what PBM binding z-score belongs to GCTGCTAGGTTAACTGATGGTCAGCTAAAGCTCG ? -0.847

And the next one, CCGACGGGGGCAGAAAGGTTACCATACCATCCGG ? 2.71

And the next one, ATATGTAGGTTAGGGTCATACAGAAAGTAGGGAA ? 2.42

And the next one, ACTAGCAGGTCAAGGGTCACTCAAGATTAGTCCG ? 1.92

And the next one, CGTCCAAGGTCAGAGAGGTCACTGAATGCCGAGT ? 0.0701

And the next one, CAAACTAGGTCAAAGGTCAAGGTCGAGCCAACCA ? 5.8

And the next one, CGAACTAGGTCAGCAGGACAGTGAAGAGGTTGGA ? 0.821

And the next one, ATATGTAGGTCAGGGTCATTCAGAAAGTAGGGAA ? 2.1

And the next one, CGTCTAAGGTCAAAGGTCAGTGAAGAGATGACGG ? 0.828

And the next one, CATACCGGGTCAGCTAGGCCAGAGTAGGGACGGC ? 0.0787

And the next one, ATTTGTAGGTTAGGGTCATTCAGAAAGTAGGGAA ? 3.63

And the next one, AGTCAAAGTTCAGTAGGTAACGTAAGATTCAGCT ? 1.29

And the next one, CGAACTAGGTCAACGACAGTGAATCTCCGCACGC ? 5.05
